Data origin: patent US7795261B2

TGT: NK2 (Homo sapiens)
Sequence (P21452 1-398): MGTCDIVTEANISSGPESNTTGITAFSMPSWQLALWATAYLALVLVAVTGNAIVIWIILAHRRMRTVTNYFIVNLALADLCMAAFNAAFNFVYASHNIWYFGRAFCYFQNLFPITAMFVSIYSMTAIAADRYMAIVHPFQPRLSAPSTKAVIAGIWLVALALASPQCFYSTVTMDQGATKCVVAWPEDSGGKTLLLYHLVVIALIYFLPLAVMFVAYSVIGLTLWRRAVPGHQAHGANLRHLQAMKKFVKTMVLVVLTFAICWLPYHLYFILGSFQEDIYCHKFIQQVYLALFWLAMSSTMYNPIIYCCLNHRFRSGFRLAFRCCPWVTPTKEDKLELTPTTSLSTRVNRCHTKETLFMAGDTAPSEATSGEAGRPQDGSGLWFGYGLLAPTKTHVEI
EXPERIMENTAL DETAILS: Signal transduction (ST), intracellular Ca++ (FLIPR), NK2
Assay type: cell-based
MEASUREMENT SETUP: read-out: pIC50 NK2 (converted)
Note to self: IC50 under 3 µM means yes (1), ties and anything higher get no (0).

COMPOUND	TGT	ANSWER LABEL
O=C(c1ccsc1)N1CCC(N2CCN(C3CCN(C(=O)c4cc(C(F)(F)F)cc(C(F)(F)F)c4)C(Cc4ccc(F)cc4)C3)CC2)C1 (stereo not drawn) [Compound 278]	NK2 (Homo sapiens)	no (0)
O=C(C1CCOC1)N1CCC(N2CCN(C3CCN(C(=O)c4cc(C(F)(F)F)cc(C(F)(F)F)c4)C(Cc4ccccc4)C3)CC2)C1 (single isomer, unassigned) [Compound 216]	NK2 (Homo sapiens)	no (0)
O=C(c1cc(C(F)(F)F)cc(C(F)(F)F)c1)N1CC[C@H](N2CCN(C3CCN(C(CO)c4cccs4)C3)CC2)C[C@H]1Cc1ccccc1 (stereo partly drawn) [Compound 319]	NK2 (Homo sapiens)	no (0)
O=C(c1cc(C(F)(F)F)cc(C(F)(F)F)c1)N1CC[C@H](N2CCN(C3CCN(S(=O)(=O)c4ccccc4)C3)CC2)C[C@H]1Cc1ccccc1 (stereo partly drawn) [Compound 75]	NK2 (Homo sapiens)	yes (1)
O=C(c1cc(C(F)(F)F)cc(C(F)(F)F)c1)N1CCC(N2CCN(C3CCN(C(CO)c4ccsc4)C3)CC2)CC1Cc1ccccc1 (stereo not drawn) [Compound 349]	NK2 (Homo sapiens)	yes (1)
O=C(Cc1cccs1)N1CCC(N2CCN([C@H]3CCN(C(=O)c4cc(C(F)(F)F)cc(C(F)(F)F)c4)[C@H](Cc4ccccc4)C3)CC2)C1 (stereo partly drawn) [Compound 67]	NK2 (Homo sapiens)	no (0)
Cn1cccc1C(=O)N1CCC(N2CCN(C3CCN(C(=O)c4cc(C(F)(F)F)cc(C(F)(F)F)c4)C(Cc4ccc(F)c(F)c4)C3)CC2)C1 (single isomer, unassigned) [Compound 367]	NK2 (Homo sapiens)	yes (1)
O=C(c1cc(C(F)(F)F)cc(C(F)(F)F)c1)N1CC[C@H](N2CCN(C3CCN(S(=O)(=O)c4ccccc4COCc4ccccc4)C3)CC2)C[C@H]1Cc1ccccc1 (stereo partly drawn) [Compound 401]	NK2 (Homo sapiens)	no (0)
N#Cc1ccc(NC(=O)N2CCC(N3CCN([C@H]4CCN(C(=O)c5cc(C(F)(F)F)cc(C(F)(F)F)c5)[C@H](Cc5ccccc5)C4)CC3)C2)cc1 (stereo partly drawn) [Compound 283]	NK2 (Homo sapiens)	no (0)
